Exercise: for every item that follows, state its recorded GI50.
assay: Cytotoxicity against human Hs683 cells assessed as growth inhibition incubated for 72 hrs by MTT assay; assay type: functional; conditions: Hs 683, 72 h

The examples below pair each entry with its known result.
INSERT INTO measurements (smiles_input, observed_measurement) VALUES
  ('CC1(C)CCC[C@]2(C)[C@@H](C=O)C(C=O)=CC[C@@H]12', '95 µM'),
  ('CC1(C)CCC[C@]2(C)[C@@H](C=O)C(/C=C/C#N)=CC[C@@H]12', '28 µM'),
  ('C#CCCCOC(=O)/C=C/C1=CC[C@H]2C(C)(C)CCC[C@]2(C)[C@H]1C=O', '33 µM'),
  ('CC1(C)CCC[C@]2(C)[C@@H](C=O)C(/C=C/C(=O)OCc3ccccc3)=CC[C@@H]12', '31 µM'),
  ('COC(=O)/C=C/C1=CC[C@H]2C(C)(C)CCC[C@]2(C)[C@H]1C=O', '24 µM'),
  ('CCOC(=O)/C(C)=C/C1=CC[C@H]2C(C)(C)CCC[C@]2(C)[C@H]1C=O', '28 µM'),
  ('COC(=O)/C=C/C=C/C1=CC[C@H]2C(C)(C)CCC[C@]2(C)[C@H]1C=O', '12 µM'),
  ('CC(C)(C)OC(=O)/C=C/C1=CC[C@H]2C(C)(C)CCC[C@]2(C)[C@H]1C=O', '29 µM'),
  ('CCOC(=O)/C=C/C1=CC[C@H]2C(C)(C)CCC[C@]2(C)[C@H]1C=O', '29 µM');

From here, focus on the item given below.
Exercise: # query: GI50 of entry CC(=O)/C=C/C1=CC[C@H]2C(C)(C)CCC[C@]2(C)[C@H]1C=O
Key: 22 µM

Where these numbers come from: ChEMBL document CHEMBL3627669
